// data source = ChEMBL document CHEMBL1201862

System: M14
measurement-protocol: NCI tumour cell line growth inhibition, 48 h
Calls of active or inactive are those of the source. Cut-off read from the data, not from the text of the source: active = GI50 up to about 1.1 µM and inactive = higher.
Reply using exactly one outcome from 1.0 for active, 0.0 for inactive

Use the examples below as a reference point.
>>> category_label("CN(C)CCN1C(=O)c2cccc3cc([N+](=O)[O-])cc(c23)C1=O [MITONAFIDE]")
1.0
>>> category_label("Clc1ccc(CSC2=NCCN2)cc1Cl")
0.0
>>> category_label("COc1cc(/C=N\\NC(=O)C[N+](C)(C)C)cc(OC)c1OC")
0.0
>>> category_label("COc1ccc(NC(=O)CSC(=O)c2ccccc2)c(SCCSSCCSc2cc(OC)ccc2NC(=O)CSC(=O)c2ccccc2)c1")
0.0
>>> category_label("O=C1C(/N=N/c2ccc(-c3nc4ccccc4[nH]3)cc2)NC(=S)N1c1ccccc1 (stereo not drawn)")
0.0

Please let me know the test result on file for CCOc1cc(NC(C)=O)ccc1C(=O)NN1C(=O)C(Cl)C1c1ccccc1 (stereo not drawn) .
0.0

Please let me know the test result on file for CN1C(=O)C2(C=CC(O)CC2)c2ccccc21 (stereo not drawn) .
0.0

Please let me know the test result on file for COC(=O)C1CC/C(=N/C2c3ccccc3-c3ccccc32)N1 (stereo not drawn) .
0.0

Please let me know the test result on file for COc1cc(O)c(C(C)=O)c(O)c1 .
0.0

Please let me know the test result on file for CCCCCCCCCCCCCCNC(=O)CCC(NC(=O)c1ccc(N(C)Cc2cnc3nc(N)nc(N)c3n2)cc1)C(=O)NCCCCCCCCCCCCCC (stereo not drawn) .
1.0

Please let me know the test result on file for CCOC(=O)C1C(=O)c2cccc(OC)c2C2COC(=O)N12 (stereo not drawn) .
0.0

Please let me know the test result on file for CC(=O)O[C@@H]1[C@H](C(C)C)[C@@H](OC(C)=O)C/C(C)=C/CC[C@]2(C)O[C@@H]12 .
0.0
